- Tested On: hT2R5 (Homo sapiens (Human), UniProt Q9NYW4)
- Sequence (Q9NYW4 whole entry): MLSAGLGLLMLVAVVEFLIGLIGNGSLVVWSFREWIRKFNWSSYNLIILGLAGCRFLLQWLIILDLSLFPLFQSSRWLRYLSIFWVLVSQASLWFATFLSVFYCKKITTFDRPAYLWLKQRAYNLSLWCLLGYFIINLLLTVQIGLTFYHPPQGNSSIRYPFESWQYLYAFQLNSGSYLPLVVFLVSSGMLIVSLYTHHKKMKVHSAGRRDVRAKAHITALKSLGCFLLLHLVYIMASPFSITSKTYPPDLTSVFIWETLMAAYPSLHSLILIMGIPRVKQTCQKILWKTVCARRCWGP
- Protocol Text: hT2R panel inhibition, transient HEK293 G16g44, agonist Picoline 10 mM
- Format: cell-based
- Details: HEK293, compound at 25 μM; receptor activated to EC80 with the corresponding agonist; read-out: screening result against bitter receptor 5
Measure: inhibition at 25 µM

input: Returns the measured inhibition at 25 µM for the input compound. Input: COc1ccc(CN(Cc2cccc(F)c2)S(=O)(=O)c2ccc(C(=O)O)cc2)cc1 [Example 5-12]
output: 40 to 60%

input: Returns the measured inhibition at 25 µM for the input compound. Input: COc1ccc(CN(Cc2ccccc2)S(=O)(=O)c2ccc(C(=O)O)cc2)cc1 [Example 5-1]
output: 20 to 40%

input: Returns the measured inhibition at 25 µM for the input compound. Input: COc1ccc(CN(Cc2ccccc2)S(=O)(=O)c2ccc(C(=O)O)cc2)cn1 [Example 5-90]
output: 20 to 40%

input: Returns the measured inhibition at 25 µM for the input compound. Input: COc1ccc(CN(Cc2ccccc2)S(=O)(=O)Cc2ccc(C(=O)O)cc2)cc1 [Example 5-16]
output: 20 to 40%

input: Returns the measured inhibition at 25 µM for the input compound. Input: COc1ccc(CN(Cc2cccs2)S(=O)(=O)c2ccc(C(=O)O)cc2)cc1 [Example 5-61]
output: 20 to 40%

input: Returns the measured inhibition at 25 µM for the input compound. Input: O=C(O)c1ccc(S(=O)(=O)N(Cc2ccccc2)Cc2ccc3c(c2)OCO3)cc1 [Example 5-93]
output: 20 to 40%

input: Returns the measured inhibition at 25 µM for the input compound. Input: COc1ccc(CN(Cc2ccc(F)c(OC)c2)S(=O)(=O)c2ccc(C(=O)O)cc2)cc1 [Example 5-50]
output: 20 to 40%

input: Returns the measured inhibition at 25 µM for the input compound. Input: COc1cccc(CN(Cc2ccc(C(=O)O)cc2)S(=O)(=O)c2ccccc2)c1 [Example 5-101]
output: 40 to 60%

input: Returns the measured inhibition at 25 µM for the input compound. Input: COc1ccc(CN(Cc2cccc(OC)c2)S(=O)(=O)c2ccc(C(=O)O)cc2)cc1 [Example 5-34]
output: 40 to 60%

input: Returns the measured inhibition at 25 µM for the input compound. Input: COc1ccc(CN(Cc2ccc(OC)c(OC)c2)S(=O)(=O)c2ccc(C(=O)O)cc2)cc1 [Example 5-40]
output: 20 to 40%

input: Returns the measured inhibition at 25 µM for the input compound. Input: CSc1ccc(CN(Cc2ccccc2)S(=O)(=O)c2ccc(C(=O)O)cc2)cc1 [Example 5-78]
output: 20 to 40%

input: Returns the measured inhibition at 25 µM for the input compound. Input: Cc1ccc(S(=O)(=O)N(Cc2ccc(F)cc2)Cc2ccc(C(=O)O)cc2)cc1 [Example 5-37]
output: 20 to 40%

input: Returns the measured inhibition at 25 µM for the input compound. Input: COc1ccc(CN(Cc2ccc(C(=O)O)cc2)S(=O)(=O)c2ccccc2)cc1 [Example 5-102]
output: 20 to 40%

input: Returns the measured inhibition at 25 µM for the input compound. Input: COc1ccc(CN(Cc2ccoc2)S(=O)(=O)c2ccc(C(=O)O)cc2)cc1 [Example 5-27]
output: 40 to 60%

input: Returns the measured inhibition at 25 µM for the input compound. Input: O=C(O)c1ccc(S(=O)(=O)N(Cc2ccccc2)Cc2ccccc2F)cc1 [Example 5-72]
output: 40 to 60%

input: Returns the measured inhibition at 25 µM for the input compound. Input: COc1ccc(CN(Cc2ccccc2C)S(=O)(=O)c2ccc(C(=O)O)cc2)cc1 [Example 5-64]
output: 20 to 40%

input: Returns the measured inhibition at 25 µM for the input compound. Input: COc1ccc(CN(CC2CCCCC2)S(=O)(=O)c2ccc(C(=O)O)cc2)cc1 [Example 5-23]
output: 40 to 60%

input: Returns the measured inhibition at 25 µM for the input compound. Input: O=C(O)c1ccc(CN(Cc2ccccc2)S(=O)(=O)c2ccc(C(=O)O)cc2)cc1 [Example 5-48]
output: 20 to 40%

input: Returns the measured inhibition at 25 µM for the input compound. Input: O=C(O)c1ccc(S(=O)(=O)N(Cc2ccccc2)Cc2cccc(Cl)c2)cc1 [Example 5-84]
output: 20 to 40%

input: Returns the measured inhibition at 25 µM for the input compound. Input: O=C(O)c1ccc(S(=O)(=O)N(Cc2ccccc2)Cc2ccco2)cc1 [Example 5-5]
output: 20 to 40%

input: Returns the measured inhibition at 25 µM for the input compound. Input: COc1ccc(CN(Cc2ccc(C)o2)S(=O)(=O)c2ccc(C(=O)O)cc2)cc1 [Example 5-63]
output: 20 to 40%

input: Returns the measured inhibition at 25 µM for the input compound. Input: COc1ccccc1CN(Cc1ccccc1)S(=O)(=O)c1ccc(C(=O)O)cc1 [Example 5-71]
output: 20 to 40%

input: Returns the measured inhibition at 25 µM for the input compound. Input: COc1ccc(CN(Cc2ccco2)S(=O)(=O)c2ccc(C(=O)O)cc2)cc1 [Example 5-2]
output: 20 to 40%

input: Returns the measured inhibition at 25 µM for the input compound. Input: COc1ccc(CN(Cc2cccc(Cl)c2)S(=O)(=O)c2ccc(C(=O)O)cc2)cc1 [Example 5-14]
output: 60 to 80%

input: Returns the measured inhibition at 25 µM for the input compound. Input: N#Cc1ccc(CN(Cc2ccccc2)S(=O)(=O)c2ccc(C(=O)O)cc2)cc1 [Example 5-91]
output: 20 to 40%

input: Returns the measured inhibition at 25 µM for the input compound. Input: O=C(O)c1ccc(CN(Cc2ccccc2F)S(=O)(=O)c2ccccc2)cc1 [Example 5-103]
output: 20 to 40%

input: Returns the measured inhibition at 25 µM for the input compound. Input: N#Cc1cccc(CN(Cc2ccccc2)S(=O)(=O)c2ccc(C(=O)O)cc2)c1 [Example 5-75]
output: 20 to 40%

input: Returns the measured inhibition at 25 µM for the input compound. Input: O=C(O)c1ccc(CN(Cc2cccc(F)c2)S(=O)(=O)c2ccccc2)cc1 [Example 5-104]
output: 40 to 60%

input: Returns the measured inhibition at 25 µM for the input compound. Input: O=C(O)c1ccc(CN(Cc2ccc(F)cc2)S(=O)(=O)c2ccccc2)cc1 [Example 5-105]
output: 20 to 40%

input: Returns the measured inhibition at 25 µM for the input compound. Input: COc1ccc(CN(Cc2ccc(OC)cc2)S(=O)(=O)c2ccc(C(=O)O)cc2)cc1 [Example 5-30]
output: 20 to 40%

input: Returns the measured inhibition at 25 µM for the input compound. Input: COc1cc(OC)c(CN(Cc2ccccc2)S(=O)(=O)c2ccc(C(=O)O)cc2)c(OC)c1 [Example 5-15]
output: 20 to 40%

input: Returns the measured inhibition at 25 µM for the input compound. Input: Cc1ccccc1CN(Cc1ccccc1)S(=O)(=O)c1ccc(C(=O)O)cc1 [Example 5-80]
output: 20 to 40%

input: Returns the measured inhibition at 25 µM for the input compound. Input: COc1ccc(CN(Cc2ccccc2)S(=O)(=O)c2ccc(C(=O)O)cc2)cc1C [Example 5-89]
output: 20 to 40%
